Value source: ChEMBL document CHEMBL3098005

# Assay Text: Metabolic stability in human liver microsomes
# Format: ADME
# Test Context: read-out: Stability
Readout Name: microsomal CLint

[ask] I have this compound here, `CNC(=O)Nc1ccc(O)cc1OC[C@@H](O)CN1CCC2(CC1)Cc1cc(Cl)ccc1O2` , and I need its recorded microsomal CLint.
[reply] < 10 µL/min/mg

[ask] I have this compound here, `N[C@H](COc1cccc2c1NC(=O)CO2)CN1CCC2(CC1)Cc1cc(F)ccc1O2` , and I need its recorded microsomal CLint.
[reply] < 10 µL/min/mg

[ask] I have this compound here, `CNC(=O)Nc1ccc(OC)cc1OC[C@@H](O)CN1CCC2(CC1)Cc1cc(F)ccc1O2` , and I need its recorded microsomal CLint.
[reply] 87.9 µL/min/mg

[ask] I have this compound here, `CNC(=O)Nc1ccc(O)cc1OC[C@@H](O)CN1CCC2(CC1)Cc1cc(F)ccc1O2` , and I need its recorded microsomal CLint.
[reply] < 10 µL/min/mg

[ask] I have this compound here, `NC(=O)Nc1ccc(O)cc1OC[C@@H](O)CN1CCC2(CC1)Cc1cc(Cl)ccc1O2` , and I need its recorded microsomal CLint.
[reply] < 10 µL/min/mg

[ask] I have this compound here, `O=C(Nc1ccccc1OC[C@@H](O)CN1CCC2(CC1)Cc1cc(Cl)ccc1O2)N1CCCC1` , and I need its recorded microsomal CLint.
[reply] > 200 µL/min/mg

---

# Assay Text: Metabolic stability in human liver microsomes
# Type: ADME
# Test Context: read-out: Stability
Readout Name: microsomal CLint

[ask] I have this compound here, `N[C@H](COc1cccc2ccc(=O)[nH]c12)CN1CCC2(CC1)Cc1cc(F)ccc1O2` , and I need its recorded microsomal CLint.
[reply] < 10 µL/min/mg

[ask] I have this compound here, `O=C(Nc1cc(Cl)c(O)cc1OC[C@@H](O)CN1CCC2(CC1)Cc1cc(Cl)ccc1O2)NC1CC1` , and I need its recorded microsomal CLint.
[reply] < 11.4 µL/min/mg

[ask] I have this compound here, `O=C(Nc1ccc(O)cc1OC[C@@H](O)CN1CCC2(CC1)Cc1cc(Cl)ccc1O2)NC1CC1` , and I need its recorded microsomal CLint.
[reply] < 10 µL/min/mg
